biological target: Torsin-1A-interacting protein 2 (Homo sapiens); assay: LULL1 binders on small-molecule microarray, primary screen, cell lysate, human LULL1 lysate, 635/667 nm fluorescence (AID 1092); details: hLULL1 lysate binding, 635 nm fluorescence, higher = more signal;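 also: probe is lysate of COS7 cells overexpressing human LULL1; score merges per-feature 667 nm fluorescence with signal-to-noise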
Measured attribute: composite z-score
Response field accepts a number only; no unit should be typed.

Below, each entry is followed by its recorded composite z-score result.
| Compound | composite z-score |
| --- | --- |
| Cc1ccc(S[C@]2(C(=O)NCCN3CCOCC3)CC(=O)N(Cc3cc(C(F)(F)F)cc(C(F)(F)F)c3)[C@@H]2c2ccc(CO)cc2)cc1 | 1.47 |
| CC(C)(C)OC(=O)CC[C@@]1(C(=O)NCc2ccccc2)N=C(c2ccc(OCCCO)cc2)O[C@@H]1c1ccccc1CN=[N+]=[N-] | 2.3 |
| C=CCN1C(=O)[C@@]2(O[C@@H](CCn3cc(CCO)nn3)[C@H]([Si](C)(C)c3ccc(OC)cc3)[C@H]2C)c2cc(N3C(=O)c4cccc5cccc3c45)ccc21 | 0.875 |
| CC(C)C(CO)N1C(=O)[C@@H]2[C@H]3C(=O)OCC=C[C@H]3OC23C=CCN(Cc2ccccc2)C(=O)[C@@H]13 (stereo partly drawn) | -1.04 |
| COc1ccc(CCNC(=O)[C@@]2(Sc3ccc(C)cc3)CC(=O)N(Cc3ccccc3)[C@@H]2c2ccc(CO)cc2I)cc1 | 1.87 |
| CCCCC(=C=CC[C@@H](O)c1ccc(OCCO)cc1)C[C@@H](O)c1cc(Cl)cc(Cl)c1O | 1.36 |
| CCCCC(=C=CC[C@H](O)c1cccc(OCCO)c1)CCO | 1.33 |

Next:
Q: Query the reported composite z-score for Torsin-1A-interacting protein 2 (Homo sapiens); item: "CCCCCCC#C[Si](O[C@H](c1ccccc1)c1cn(Cc2ccccc2)nn1)(C(C)C)C(C)C"
A: 0.468

Origin of measurements: PubChem BioAssay
